Data provenance is paper PMC12349723.

Tested on: DU145-TXR cells
EXPERIMENTAL PROTOCOL: MTT viability assay, reversal of MDR (re-sensitization to paclitaxel) in P-gp overexpressing DU145-TXR cells
Assay type: cell-based, human
TEST CONDITIONS: Homo sapiens, 15 µM Compound Alone; DU145-TXR; trial 1, sample 1; read-out: % Survival
In this section, each of the compounds is paired with its reported viability at 15 µM.
Write it as a number; the unit % goes unstated.

# annotated cases, reported viability at 15 µM shown
INSERT INTO measurements (compound, experimental_value) VALUES
  ('O=S(=O)(Cc1nc2ccccc2n1CC(O)c1ccc(Cl)cc1)c1ccccc1 (stereo not shown)', 107),
  ('CCN1CCN(Cc2c(C(=O)N/N=C3/C(=O)N(C)c4ccccc43)nnn2-c2nonc2N)CC1', 118),
  ('Cc1onc(-c2ccccc2)c1-c1nnc(Cn2cnc3ccccc3c2=O)o1', 111);

Consider now this further compound.
Param item = O=C(NCc1cccc(F)c1)c1nnn2c1Sc1c(C(=O)NCc3cccc(F)c3)nnn1CC2 ; retrieve measured viability at 15 µM.
102

---

System: DU145-TXR cells
EXPERIMENTAL PROTOCOL: MTT viability assay, reversal of MDR (re-sensitization to paclitaxel) in P-gp overexpressing DU145-TXR cells
Assay type: cell-based, human
TEST CONDITIONS: Homo sapiens, 15 µM Compound Alone; DU145-TXR; trial 2, sample 1; read-out: % Survival
ENDPOINT NAME: viability at 15 µM (%)
Write it as a number; the unit % goes unstated.

INSERT INTO assay_data (chemical_string, endpoint_name, experimental_value) VALUES
  ('Cc1ccc(-c2noc(-c3cn(Cc4ccc(NS(=O)(=O)c5ccccc5F)cc4)cn3)n2)cc1', 'viability at 15 µM', 108),
  ('Cn1cnnc1SCc1c(C(=O)O)nnn1-c1nonc1N', 'viability at 15 µM', 103),
  ('Cc1onc(-c2ccccc2)c1-c1nnc(Cn2cnc3c(oc4ccccc43)c2=O)o1', 'viability at 15 µM', 91);

Consider now this further compound.
Param item = O=C(c1nc(-c2ccccn2)no1)N1CCN(c2nsc3ccccc23)CC1 ; retrieve measured viability at 15 µM.
114

---

Tested on: P-gp
EXPERIMENTAL PROTOCOL: SWISS-ADME prediction of P-gp transport substrate
TEST CONDITIONS: prediction compared to the LC-MS/MS intracellular accumulation data
ENDPOINT NAME: Correct P-gp Substrate Prediction?

# annotated cases, reported Correct P-gp Substrate Prediction? shown
INSERT INTO results (compound, target_desc, endpoint_name, experimental_value) VALUES
  ('O=C(c1nc(-c2ccc3cc[nH]c3c2)no1)N1CCN(c2nsc3ccccc23)CC1', 'P-gp', 'Correct P-gp Substrate Prediction?', 'No'),
  ('O=C(c1nc(-c2ccccn2)no1)N1CCN(c2nsc3ccccc23)CC1', 'P-gp', 'Correct P-gp Substrate Prediction?', 'No'),
  ('COc1cccc(N2CCN(c3ccc4nnc(CCC(=O)Nc5ccc(F)c(F)c5)n4n3)CC2)c1', 'P-gp', 'Correct P-gp Substrate Prediction?', 'No'),
  ('O=S(=O)(Cc1nc2ccccc2n1CC(O)c1ccc(Cl)cc1)c1ccccc1 (stereo not shown)', 'P-gp', 'Correct P-gp Substrate Prediction?', 'Yes'),
  ('Nc1nonc1-n1nnc(C(=O)N/N=C/c2c3ccccc3cc3ccccc23)c1COc1ccc(F)cc1', 'P-gp', 'Correct P-gp Substrate Prediction?', 'No');

Param item = COc1ccc(OC)c(NC(=O)c2nnn(-c3ccc4noc(-c5ccccc5)c4c3)c2C)c1 ; retrieve measured Correct P-gp Substrate Prediction?.
No

// next record Cc1onc(-c2ccccc2)c1-c1nnc(Cn2cnc3c(oc4ccccc43)c2=O)o1
No

// next record O=S(=O)(CCSc1nnc(-c2ccccc2)c2ccccc12)c1ccccc1
Yes

// next record Cc1onc(-c2ccccc2)c1-c1nnc(Cn2cnc3ccccc3c2=O)o1
No

// next record CCN1CCN(Cc2c(C(=O)N/N=C3/C(=O)N(C)c4ccccc43)nnn2-c2nonc2N)CC1
Yes

---

TARGET DESC: P-gp (Homo sapiens, UniProt P08183)
Construct: The MDR, P-gp overexpressing DU145-TXR cells were maintained under positive selection pressure; endogenous in cells; host or cells: DU145-TXR (paclitaxel-resistant sub-line of DU145 human prostate cancer cells)
Sequence (P08183 whole entry): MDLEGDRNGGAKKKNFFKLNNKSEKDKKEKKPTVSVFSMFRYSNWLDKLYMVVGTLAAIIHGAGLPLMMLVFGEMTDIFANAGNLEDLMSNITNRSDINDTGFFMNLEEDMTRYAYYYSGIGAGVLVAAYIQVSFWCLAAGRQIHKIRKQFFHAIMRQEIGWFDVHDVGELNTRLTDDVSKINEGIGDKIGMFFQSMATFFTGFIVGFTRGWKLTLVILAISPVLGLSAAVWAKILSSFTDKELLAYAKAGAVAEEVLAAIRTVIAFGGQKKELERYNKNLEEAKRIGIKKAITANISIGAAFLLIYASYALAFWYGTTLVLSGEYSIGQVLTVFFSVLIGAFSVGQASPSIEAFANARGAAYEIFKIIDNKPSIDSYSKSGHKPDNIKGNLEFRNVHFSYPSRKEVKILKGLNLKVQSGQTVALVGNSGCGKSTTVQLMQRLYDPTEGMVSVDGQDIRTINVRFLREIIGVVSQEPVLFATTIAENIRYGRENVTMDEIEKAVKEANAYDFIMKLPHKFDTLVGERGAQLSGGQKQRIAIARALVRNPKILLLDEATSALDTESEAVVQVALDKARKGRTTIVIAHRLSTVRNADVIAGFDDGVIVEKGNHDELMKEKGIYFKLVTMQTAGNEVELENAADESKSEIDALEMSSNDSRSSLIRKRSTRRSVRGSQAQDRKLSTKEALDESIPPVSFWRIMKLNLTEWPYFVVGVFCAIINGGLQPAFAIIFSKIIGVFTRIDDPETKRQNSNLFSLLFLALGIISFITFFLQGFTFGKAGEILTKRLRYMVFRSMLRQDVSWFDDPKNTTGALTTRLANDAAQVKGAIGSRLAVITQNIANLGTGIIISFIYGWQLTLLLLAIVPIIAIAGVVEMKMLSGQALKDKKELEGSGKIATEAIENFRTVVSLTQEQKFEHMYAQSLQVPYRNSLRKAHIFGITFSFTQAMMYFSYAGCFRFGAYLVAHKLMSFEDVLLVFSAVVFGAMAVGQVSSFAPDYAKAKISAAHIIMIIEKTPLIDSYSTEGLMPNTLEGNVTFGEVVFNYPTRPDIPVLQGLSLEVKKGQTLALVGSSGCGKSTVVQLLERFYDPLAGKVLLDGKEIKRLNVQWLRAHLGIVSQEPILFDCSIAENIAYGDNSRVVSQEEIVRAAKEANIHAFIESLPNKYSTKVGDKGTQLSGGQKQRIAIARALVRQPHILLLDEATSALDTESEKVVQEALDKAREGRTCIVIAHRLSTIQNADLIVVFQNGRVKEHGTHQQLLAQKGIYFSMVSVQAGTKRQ
EXPERIMENTAL PROTOCOL: Daunorubicin accumulation (fluorescence) assay in DU145-TXR cells
Type: cell-based
TEST CONDITIONS: Student's T test of the mean
ENDPOINT NAME: Significance (DAU + compound vs DAU alone)

# annotated cases, reported Significance (DAU + compound vs DAU alone) shown
INSERT INTO assay_data (compound, experimental_value) VALUES
  ('O=S(=O)(CCSc1nnc(-c2ccccc2)c2ccccc12)c1ccccc1', '**** (P < 0.0001 = ****)'),
  ('O=S(=O)(Cc1nc2ccccc2n1CC(O)c1ccc(Cl)cc1)c1ccccc1 (stereo not drawn)', '**** (P < 0.0001 = ****)'),
  ('Cc1onc(-c2ccccc2)c1-c1nnc(Cn2cnc3ccccc3c2=O)o1', 'N.S. (P > 0.05 = N.S.)'),
  ('COc1cc2c(cc1OC)CN(CCc1ccc(NC(=O)c3cc(OC)c(OC)cc3NC(=O)c3cnc4ccccc4c3)cc1)CC2 [Tariquidar, reference compound]', '**** (P < 0.0001 = ****)'),
  ('Cc1onc(-c2ccccc2)c1-c1nnc(Cn2cnc3c(oc4ccccc43)c2=O)o1', '* (P < 0.05 = *)');

Param item = O=C(c1nc(-c2ccc3cc[nH]c3c2)no1)N1CCN(c2nsc3ccccc23)CC1 ; retrieve measured Significance (DAU + compound vs DAU alone).
* (P < 0.05 = *)

// next record Cn1cnnc1SCc1c(C(=O)O)nnn1-c1nonc1N
N.S. (P > 0.05 = N.S.)

// next record COc1cccc(N2CCN(c3ccc4nnc(CCC(=O)Nc5ccc(F)c(F)c5)n4n3)CC2)c1
**** (P < 0.0001 = ****)

---

Tested on: DU145-TXR cells
EXPERIMENTAL PROTOCOL: MTT viability assay, reversal of MDR (re-sensitization to paclitaxel) in P-gp overexpressing DU145-TXR cells
Type: cell-based, human
TEST CONDITIONS: Homo sapiens, 15 µM Compound Alone; DU145-TXR; trial 1, sample 1; read-out: % Survival
ENDPOINT NAME: viability at 15 µM (%)
Write it as a number; the unit % goes unstated.

# annotated cases, reported viability at 15 µM shown
INSERT INTO assay_data (compound, target_desc, unit_info, experimental_value) VALUES
  ('COc1cc2c(cc1OC)CN(CCc1ccc(NC(=O)c3cc(OC)c(OC)cc3NC(=O)c3cnc4ccccc4c3)cc1)CC2 [Tariquidar, reference compound]', 'DU145-TXR cells', '%', 139),
  ('Cc1ccc(-c2noc(-c3cn(Cc4ccc(NS(=O)(=O)c5ccccc5F)cc4)cn3)n2)cc1', 'DU145-TXR cells', '%', 58),
  ('COc1cccc(N2CCN(c3ccc4nnc(CCC(=O)Nc5ccc(F)c(F)c5)n4n3)CC2)c1', 'DU145-TXR cells', '%', 121),
  ('Cc1onc(-c2ccccc2)c1-c1nnc(Cn2cnc3c(oc4ccccc43)c2=O)o1', 'DU145-TXR cells', '%', 90),
  ('O=C(c1nc(-c2ccccn2)no1)N1CCN(c2nsc3ccccc23)CC1', 'DU145-TXR cells', '%', 96),
  ('O=C(c1nc(-c2ccc3cc[nH]c3c2)no1)N1CCN(c2nsc3ccccc23)CC1', 'DU145-TXR cells', '%', 92),
  ('COc1ccc(OC)c(NC(=O)c2nnn(-c3ccc4noc(-c5ccccc5)c4c3)c2C)c1', 'DU145-TXR cells', '%', 44),
  ('Cn1cnnc1SCc1c(C(=O)O)nnn1-c1nonc1N', 'DU145-TXR cells', '%', 132),
  ('NS(=O)(=O)c1cccc(NC(=O)CSc2nnnn2C2CC2)c1', 'DU145-TXR cells', '%', 115),
  ('O=S(=O)(CCSc1nnc(-c2ccccc2)c2ccccc12)c1ccccc1', 'DU145-TXR cells', '%', 101);

Param item = O=C(c1cc2ccccc2[nH]1)N1CCN(S(=O)(=O)c2cccc3nonc23)CC1 ; retrieve measured viability at 15 µM.
87

// next record Nc1nonc1-n1nnc(C(=O)N/N=C/c2c3ccccc3cc3ccccc23)c1COc1ccc(F)cc1
100

---

Tested on: DU145-TXR cells
EXPERIMENTAL PROTOCOL: MTT viability assay, reversal of MDR (re-sensitization to paclitaxel) in P-gp overexpressing DU145-TXR cells
Format: cell-based, human
TEST CONDITIONS: Homo sapiens, 15 µM Compound Alone; DU145-TXR; mean of 8 samples; read-out: % Survival, mean
In this section, each of the compounds is paired with its reported viability at 15 µM.
Write it as a number; the unit % goes unstated.

# annotated cases, reported viability at 15 µM shown
INSERT INTO assay_data (compound, unit_info, experimental_value) VALUES
  ('Cc1onc(-c2ccccc2)c1-c1nnc(Cn2cnc3c(oc4ccccc43)c2=O)o1', '%', 93.3),
  ('COc1ccc(OC)c(NC(=O)c2nnn(-c3ccc4noc(-c5ccccc5)c4c3)c2C)c1', '%', 33.8),
  ('NS(=O)(=O)c1cccc(NC(=O)CSc2nnnn2C2CC2)c1', '%', 105);

Consider now this further compound.
Param item = O=S(=O)(Cc1nc2ccccc2n1CC(O)c1ccc(Cl)cc1)c1ccccc1 (stereo not shown) ; retrieve measured viability at 15 µM.
87.2
